- assayed-target: S. agalactiae γ-GCS-GS (Streptococcus agalactiae serotype V)
- Sequence (Q8DXM9 whole entry): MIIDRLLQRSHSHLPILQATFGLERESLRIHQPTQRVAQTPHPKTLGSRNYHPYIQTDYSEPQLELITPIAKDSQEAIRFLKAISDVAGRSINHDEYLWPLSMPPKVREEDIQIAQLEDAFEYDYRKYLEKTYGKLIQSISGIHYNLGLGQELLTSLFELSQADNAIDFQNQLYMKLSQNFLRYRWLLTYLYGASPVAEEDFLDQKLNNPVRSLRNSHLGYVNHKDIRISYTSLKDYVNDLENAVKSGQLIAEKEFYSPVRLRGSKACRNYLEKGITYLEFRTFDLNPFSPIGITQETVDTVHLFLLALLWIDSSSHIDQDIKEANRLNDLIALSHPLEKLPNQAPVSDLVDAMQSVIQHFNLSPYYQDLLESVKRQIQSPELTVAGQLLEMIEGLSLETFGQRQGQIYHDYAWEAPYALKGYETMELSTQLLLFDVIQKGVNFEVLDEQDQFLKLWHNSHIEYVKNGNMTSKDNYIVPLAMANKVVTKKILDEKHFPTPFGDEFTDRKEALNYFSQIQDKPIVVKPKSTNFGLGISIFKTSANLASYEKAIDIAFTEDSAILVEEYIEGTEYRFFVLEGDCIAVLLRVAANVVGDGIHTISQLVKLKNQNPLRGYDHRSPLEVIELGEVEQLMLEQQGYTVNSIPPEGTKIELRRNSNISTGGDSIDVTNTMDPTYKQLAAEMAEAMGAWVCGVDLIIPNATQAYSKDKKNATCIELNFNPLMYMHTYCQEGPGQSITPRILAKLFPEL
- test-name: γ-GCS activity assay based on ADP formation, S. agalactiae γ-GCS-GS
- Assay type: biochemical
- Parameters: corresponded to full-length S. agalactiae γ-GCS-GS with an N-terminal His8-tag; made in house; host or cells: E. coli SG13009 with pQE30-gshAB plus pREP4 or pRARE
- condition-label: inhibition of γ-GCS activity, initial reversible binding; read-out: Ki
- Protocol: In Table 1, a unit was defined as the amount of enzyme activity required to catalyze the formation of 1 μmol of product per hour. Specific activity was shown as units per mg protein. Activity was determined at 37° C. based on ADP formation in reaction mixtures containing L-glutamate and L-cysteine and using pyruvate kinase and lactate dehydrogenase to couple ADP formation to NADH oxidation, which was monitored at 340 nm. Exp. Purif. 13, 268-276 (1998). […]
reported-metric: Ki (mM)
Form entry: value (mM) — number only.

Prompt: For the compound CP(=O)(O)CCC(N)C(=O)O.N (stereo not shown) [glufosinate (ammonium salt), glufosinate ammonium] , give its reported Ki.
Completion: 29
